The measured values listed here are drawn from ChEMBL document CHEMBL1201862.

tested on: MOLT-4; test: NCI tumour cell line growth inhibition, 48 h
Calls of active or inactive are those of the source. Cut-off read from the data, not from the text of the source: active = GI50 up to about 1.1 µM and inactive = higher. Residues, ends and D or L forms follow the SMILES beside them. *: point of attachment. Boc = CC(C)(C)OC(=O)*
Quick reference: GI50 of the listed items.

| COMPOUND | GI50 |
| --- | --- |
| COC(=O)C(Cc1c[nH]c2ccccc12)NC(=O)C(Cc1c[nH]c2ccccc12)NC(=O)C(Cc1c[nH]c2ccccc12)NC(=O)C(Cc1c[nH]c2ccccc12)NC(=O)C(Cc1c[nH]c2ccccc12)NC(=O)C(Cc1c[nH]c2ccccc12)NC(=O)OC(C)(C)C (stereo not drawn) (Boc-WWWWWW-OMe; configuration not given here) | 63.4 µM (inactive) |
| O=c1ncccn1[C@@H]1O[C@H](CO)[C@@H](O)[C@@H]1F | > 100 µM (inactive) |
| CC1(C)OC2COC3(CNO)OC(C)(C)OC3C2O1 (stereo not drawn) | > 100 µM (inactive) |

====

Quick reference: GI50 of the listed items.
system: IGROV-1; experiment: NCI tumour cell line growth inhibition, 48 h
Activity calls are given as the source filed them. Cut-off read from the data, not from the text of the source: active = GI50 up to about 1.1 µM and inactive = higher.

| MOLECULE | GI50 |
| --- | --- |
| O=C(CCc1ccc(O)cc1)NCCc1ccc(O)cc1 | > 100 µM (inactive) |
| CN(C)c1ccc(/C=c2/c3ccccc3n3nc4ccccc4c23)cc1 | 22.1 µM (inactive) |
| Cc1cc(S(=O)(=O)NC2=Nc3ccccc3C(c3ccccc3)N2)c(S)cc1Cl (stereo not given) | > 100 µM (inactive) |
| Cc1ncc([N+](=O)[O-])n1CCN=[N+]=[N-] | > 100 µM (inactive) |
| O=C(/C=C/c1ccc(O)c(O)c1)O[C@H]1CCCC[C@@H]1OC(=O)/C=C/c1ccc(O)c(O)c1 | 4.9 µM (inactive) |
| Cc1cc(S(=O)(=O)Nc2nc(N)n(-c3cnc4ccccc4n3)n2)c(S)cc1Cl | > 100 µM (inactive) |
| CCCCOP(=O)(OCCCC)/C(C#N)=C/c1ccco1 | > 100 µM (inactive) |
| CN(C)CCCNC(=O)c1cc(NC(=O)CCCn2c3ccccc3c3ccccc32)cn1C | 6.64 µM (inactive) |
| CC(C)(Br)C(Br)CCC(C)(Br)C(Br)CO (stereo not given) | > 10 µM (inactive) |
| CC(=O)O[C@H]1C(=O)[C@@]2(C)[C@H]([C@H](OC(=O)c3ccccc3)[C@]3(O)C[C@H](OC(=O)[C@H](O)[C@@H](NC(=O)c4ccc(N)cc4)c4ccccc4)C(C)=C1C3(C)C)[C@]1(OC(C)=O)CO[C@@H]1C[C@@H]2O | 0.014 µM (active) |

====

test system: NCI-H460; assay: NCI tumour cell line growth inhibition, 48 h
Calls of active or inactive are those of the source. No stated cut-off is given here; in the data, active = GI50 up to about 1.1 µM and inactive = higher.
Quick reference: GI50 of the listed items.
MEASURED ENDPOINT: GI50

| COMPOUND | STUDY TARGET | MEASUREMENT |
| --- | --- | --- |
| Cc1ccc(/C=C2\CCCC(CN3CCCCC3)C2=O)cc1 (stereo unspecified) | NCI-H460 | 3.89 µM (inactive) |
| COc1ccc(C=C2C(=O)OC(C)(C)OC2=O)cc1OC | NCI-H460 | > 100 µM (inactive) |
| O=C(O)c1cc(-c2ccc3cc(O)c(O)cc3c2)ccc1O | NCI-H460 | > 12.5 µM (inactive) |
| COc1ccc2c(c1)C/C(=C\c1cccc3ccccc13)C2=O | NCI-H460 | 4.99 µM (inactive) |
| Nc1nc(-c2ccco2)cc(-c2ccc(CO)o2)n1 | NCI-H460 | > 100 µM (inactive) |
| CCOC(=O)C1Cc2[nH]c3ccccc3c2C(C)C1C (stereo unspecified) | NCI-H460 | 17.3 µM (inactive) |
| Cc1ccc([S+]([O-])C[C@](NC(=O)OCc2ccccc2)(Sc2ccccc2)C(F)F)cc1 (stereo partly specified) | NCI-H460 | 17.9 µM (inactive) |
| CCOC(=O)C(C(N)=O)C1=Nc2cc([N+](=O)[O-])ccc2N/C1=C\C(=O)c1ccccc1 (stereo unspecified) | NCI-H460 | 13.4 µM (inactive) |
| OCCCCCNc1ccnc2cc(Cl)ccc12 | NCI-H460 | 69.3 µM (inactive) |
| COc1cc(C(C#N)NNc2nc(C)cc(O)n2)cc(OC)c1OC (stereo unspecified) | NCI-H460 | > 100 µM (inactive) |
| O=C(Nc1nc(C23CC4CC(CC(C4)C2)C3)cs1)c1cc2cc(Cl)ccc2oc1=O | NCI-H460 | > 100 µM (inactive) |
